System: CAKI-1 renal
test: NCI-60 one-dose screen, 48 h (100 = growth as untreated, 0 = no growth, -100 = all killed)
condition.notes: 10 µM unless noted
The panel holds about 83,000 compounds, 20% with a hit somewhere; the sample as a whole holds those more often. Active and inactive are the calls of the source. How the source made its calls: active means growth percent below 10; inactive means the rest.
measured.parameter: growth

// query Complete the entry with growth for CN1CCN(c2nc(-c3ccncc3)nc3sc4c(c23)CCCCCC4)CC1
// result 46.7% (inactive)

---

Tested on: EKVX NSCLC
test: NCI-60 one-dose screen, 48 h
condition.notes: 10 µM unless noted
Compounds without any hit were thinned out: in the full panel of roughly 83,000, 20% have a hit. Calls of active or inactive are those of the source. The calls were made as follows: active = growth percent below 10; inactive = the rest.
Thanks in advance; please answer with one of these: active, inactive

Sample answers from the record:
In [3]: df
Out[3]:
                                   molecule  classification
0          COc1ncnc2c1ncn2C/C(Br)=C(\Br)CCl        inactive
1  O=C(NCc1ccc(F)cc1)C1CN(c2ccc(Cl)cc2)N(c2ccc(Cl)cc2)C1=O (configuration not stated)        inactive
2      N#C/C(=C\c1ccc[nH]1)c1cc2ccccc2[nH]1        inactive
3  Cc1cccc2c(=O)c3c(sc12)c(NCCCN)nc1ccccc13        inactive
4  CN1CCc2cccc3c2C1Cc1ccc(O)c(O)c1-3 (configuration not stated)        inactive
5   O=C1C(Cl)=C(NCCCN2CCOCC2)C(=O)c2ccccc21        inactive
6  COc1cc2cc(Oc3ccc(NC(=O)Nc4ccc(Cl)c(C(F)(F)F)c4)cc3)c(C)nc2cc1OCCN1CCCCC1        inactive
7  Cc1cccc2c(=O)c3c(sc12)c(NCCNCCO)nc1ccccc13        inactive
8  COc1ccc(-c2nn(-c3ccc(NC(=O)c4ccc(Cl)c(Cl)c4)cc3)cc2-c2ccncc2)cc1Cl        inactive
9  N#Cc1c(O)c2c(c(O)c1C#N)C(=O)c1ccccc1C2=O        inactive

// query Per the records of this test, what outcome belongs to N#Cc1c(-c2cccc(F)c2)cc(-c2ccc(Br)s2)[nH]c1=O ?
// result inactive

// query # lookup: test call for COC(=O)c1c2c(c(C)[n+]([O-])c1C)C(=O)C(NCc1ccc(O)cc1)=CC2=O
// result active

// query Could you check what this test reported for CCOC(=O)c1c(-c2cc(OC)c(OC)c(OC)c2)csc1N ?
// result inactive

---

growth reference
Tested on: LOX IMVI melanoma
test: NCI-60 one-dose screen, 48 h (100 = growth as untreated, 0 = no growth, -100 = all killed)
condition.notes: 10 µM unless noted
Procedure: Growth inhibition of the LOX IMVI human tumor cell line is measured as a screen for anti-cancer activity. Cells are grown in 96 well plates and exposed to the test compound for 48 hours. Compounds are tested at a single concentration, which is 10^-5 M for most compounds. The reported endpoint is percent growth (GI% or GIPRCNT), where numbers from 0 - 100% represent growth inhibition, and numbers from -100% - 0 represent cell death. For example, a value of 40 represents 60% growth inhibition. […]
The panel holds about 83,000 compounds, 20% with a hit somewhere; the sample as a whole holds those more often.
Express your answer in %, writing the number without its unit.

Worked cases, answers included:
>>> df
                                   compound  experimental_target  quantitative_readout
0  c1ccc(-c2n(Cc3ccc4ccccc4n3)c3ccccc3[n+]2Cc2ccc3ccccc3n2)cc1    LOX IMVI melanoma                 -75.8
1  FC(F)(F)Oc1ccc2c(c1)C[C@H]1C[C@@H](c3ccoc3)N2O1    LOX IMVI melanoma                  91.8
2  Cc1ccc2nc(NC(=O)CSC(=S)N3CCN(C)CC3)sc2c1    LOX IMVI melanoma                 -72.3
3  C[C@@H](Oc1cc(-c2cnn(C3CC4(CCCNC4)C3)c2)cnc1N)c1c(Cl)ccc(F)c1Cl (stereo not given in full)    LOX IMVI melanoma                   -73
4              Nc1cccc2c(=S)c3ccccc3[nH]c12    LOX IMVI melanoma                  88.5
5  COc1cccc(C2C3=C(COC3=O)N(CCO)c3cc4c(cc32)OCO4)c1 (stereo not given)    LOX IMVI melanoma                  53.8

// query Identify measured growth obtained with LOX IMVI melanoma for O=C(N/N=C/c1ccc2c(c1)OCO2)c1cnn2c1NC(c1ccccc1)C2 (stereo not given) .
// result 26.4

// query Enter recorded growth with LOX IMVI melanoma for O=C1/C(=C/c2ccc(Cl)cc2)CN(Cc2cn(CCCNc3ccnc4cc(Cl)ccc34)nn2)C/C1=C\c1ccc(Cl)cc1 here.
// result -86.2

// query Name the recorded growth of Clc1ccccc1Nc1ccc2nnc(-c3ccncc3)n2n1 , assay system LOX IMVI melanoma.
// result 96.1

// query Provide growth, tested on LOX IMVI melanoma, for O=S(=O)(Nc1ncccn1)c1ccc(Nc2ccc3nnc(-c4ccncc4)n3n2)cc1 .
// result 95.1
